# assayed_target: HLA A2.1 molecule (human)
# measurement_notes: T2 cells, flow cytometry (BB7.2); complex dissociation
Lab note: compare DC50 with 4 h, writing 1 (yes) if less and 0 (no) if equal or more.

As a guide, the following entries are already answered.
[
  {
    "binder": "QLLRSFFHFL (modifications not checked) [mp 545]",
    "qualitative_label": "0 (no)"
  },
  {
    "binder": "ELVSEFSRM (modifications not checked) [HER-2/neu 971]",
    "qualitative_label": "1 (yes)"
  },
  {
    "binder": "PLTSIISAV (modifications not checked) [HER-2/neu 650]",
    "qualitative_label": "1 (yes)"
  },
  {
    "binder": "SLFDFFHFL (modifications not checked) [mp 797]",
    "qualitative_label": "0 (no)"
  },
  {
    "binder": "VLYRYGSFSV (modifications not checked) [gp100 476]",
    "qualitative_label": "0 (no)"
  }
]

Problem: Check if DC50 falls below 4 h for KLTGDENFTI (modifications not checked) [Tyrosinase 224] .
Solution: 1 (yes)

Problem: Regarding LLDTGADDTV (modifications not checked) [pol79] , kindly confirm whether its DC50 is beneath 4 h.
Solution: 1 (yes)
